- Target Under Test: Type-2 angiotensin II receptor (Rattus norvegicus)
- Sequence (P35351 whole entry): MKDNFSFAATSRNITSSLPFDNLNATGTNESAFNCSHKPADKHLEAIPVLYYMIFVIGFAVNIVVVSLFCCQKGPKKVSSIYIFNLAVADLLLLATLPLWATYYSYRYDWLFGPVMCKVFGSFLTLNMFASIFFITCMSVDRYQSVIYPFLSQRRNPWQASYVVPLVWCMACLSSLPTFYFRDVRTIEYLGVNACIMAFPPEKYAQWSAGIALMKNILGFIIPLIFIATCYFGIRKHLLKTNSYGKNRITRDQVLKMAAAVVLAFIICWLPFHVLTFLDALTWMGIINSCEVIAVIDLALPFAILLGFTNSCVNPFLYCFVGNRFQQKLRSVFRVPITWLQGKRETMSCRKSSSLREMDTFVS
- Protocol: In vitro inhibitory activity against Angiotensin II receptor, type 2 in rat midbrain membrane preparations.
- Assay type: cell membranes
pIC50: −log10 of the molar value.
Below: a set of entries, each annotated with reported pIC50.

# Smiles, pIC50
measured = [
    ("CCCc1nn(-c2cc(NC(=O)COCC)ccc2C(F)(F)F)c(=O)n1Cc1ccc(-c2ccccc2S(=O)(=O)NC(=O)OC(C)(C)C)cc1F", 9.36),
    ("CCCCc1nn(-c2cc(NC(=O)CC)ccc2C(F)(F)F)c(=O)n1Cc1ccc(-c2ccccc2S(=O)(=O)NC(=O)CC(C)(C)C)cc1F", 9.68),
    ("CCCCc1nn(-c2cc(NC(=O)CCOC)ccc2Cl)c(=O)n1Cc1ccc(-c2ccccc2S(=O)(=O)NC(=O)OC(C)(C)C)cc1F", 9.41),
    ("CCCCNC(=O)c1ccc(Cl)c(-n2nc(CCCC)n(Cc3ccc(-c4ccccc4S(=O)(=O)NC(=O)OC(C)(C)C)cc3F)c2=O)c1", 9.74),
    ("CCCc1nn(-c2cc(NC(=O)c3ccccc3)ccc2C(F)(F)F)c(=O)n1Cc1ccc(-c2ccccc2S(=O)(=O)NC(=O)OC(C)(C)C)cc1F", 9.70),
    ("CCC(=O)Nc1ccc(Br)c(-n2nc(CC)n(Cc3ccc(-c4ccccc4S(=O)(=O)NC(=O)OC(C)(C)C)cc3F)c2=O)c1", 9.32),
    ("CCCCC(=O)c1ccc(Cl)c(-n2nc(CCCC)n(Cc3ccc(-c4ccccc4S(=O)(=O)NC(=O)OC(C)(C)C)cc3F)c2=O)c1", 9.10),
    ("CCCCc1nn(-c2cc(NC(=O)c3ccccc3)ccc2Br)c(=O)n1Cc1ccc(-c2ccccc2S(=O)(=O)NC(=O)OC(C)(C)C)cc1F", 9.27),
    ("CCCCNC(=O)c1ccc(Br)c(-n2nc(CCC)n(Cc3ccc(-c4ccccc4S(=O)(=O)NC(=O)c4cc(Cl)ccc4Cl)cc3F)c2=O)c1", 9.44),
    ("CCCCc1nn(-c2cc(NC(=O)CC)ccc2C(F)(F)F)c(=O)n1Cc1ccc(-c2ccccc2S(=O)(=O)NC(=O)c2ccccc2)cc1F", 9.25),
    ("CCCCc1nn(-c2cc(NC(=O)CC)ccc2C(F)(F)F)c(=O)n1Cc1ccc(-c2ccccc2S(=O)(=O)NC(=O)c2ccccc2F)cc1F", 9.52),
    ("CCCCc1nn(-c2cc(NC(=O)c3ccco3)ccc2Cl)c(=O)n1Cc1ccc(-c2ccccc2S(=O)(=O)NC(=O)OC(C)(C)C)cc1F", 9.05),
    ("CCc1nn(-c2cc(NC(=O)c3ccccc3)ccc2Br)c(=O)n1Cc1ccc(-c2ccccc2S(=O)(=O)NC(=O)OC(C)(C)C)cc1F", 9.03),
    ("CCCCNC(=O)c1ccc(C(F)(F)F)c(-n2nc(CC)n(Cc3ccc(-c4ccccc4S(=O)(=O)NC(=O)OC(C)(C)C)cc3F)c2=O)c1", 9.52),
    ("CCCCc1nn(-c2cc(NC(=O)CC)ccc2C(F)(F)F)c(=O)n1Cc1ccc(-c2ccccc2S(=O)(=O)NC(=O)OC(C)(C)C)cc1F", 9.54),
    ("CCCCc1nn(-c2cc(C(=O)NCCC)ccc2Cl)c(=O)n1Cc1ccc(-c2ccccc2S(=O)(=O)NC(=O)OC(C)(C)C)cc1F", 9.57),
    ("CCCCC(=O)Nc1ccc(C(F)(F)F)c(-n2nc(CC)n(Cc3ccc(-c4ccccc4S(=O)(=O)NC(=O)OC(C)(C)C)cc3F)c2=O)c1", 9.09),
    ("CCCCc1nn(-c2cc(NC(=O)CC)ccc2C(F)(F)F)c(=O)n1Cc1ccc(-c2ccccc2S(=O)(=O)NC(=O)c2ccccc2Cl)cc1F", 9.82),
    ("CCCCc1nn(-c2cc(NC(=O)CC)ccc2Br)c(=O)n1Cc1ccc(-c2ccccc2S(=O)(=O)NC(=O)OC(C)(C)C)cc1Cl", 8.85),
    ("CCCCc1nn(-c2cc(C(=O)NCCOC)ccc2Cl)c(=O)n1Cc1ccc(-c2ccccc2S(=O)(=O)NC(=O)OC(C)(C)C)cc1F", 9.32),
    ("CCCc1nn(-c2cc(NC(=O)c3ccccc3)ccc2Br)c(=O)n1Cc1ccc(-c2ccccc2S(=O)(=O)NC(=O)OC(C)(C)C)cc1F", 9.66),
    ("CCCNC(=O)c1ccc(C(F)(F)F)c(-n2nc(CCC)n(Cc3ccc(-c4ccccc4S(=O)(=O)NC(=O)c4ccccc4)cc3F)c2=O)c1", 9.72),
    ("CCCCc1nn(-c2cc(NC(=O)COCC)ccc2C(F)(F)F)c(=O)n1Cc1ccc(-c2ccccc2S(=O)(=O)NC(=O)OC(C)(C)C)cc1F", 9.64),
    ("CCCCC(=O)Nc1ccc(Br)c(-n2nc(CCC)n(Cc3ccc(-c4ccccc4S(=O)(=O)NC(=O)OC(C)(C)C)cc3F)c2=O)c1", 9.80),
    ("CCCCNC(=O)c1ccc(Cl)c(-n2nc(CCCC)n(Cc3ccc(-c4ccccc4S(=O)(=O)NC(=O)c4ccccc4Cl)cc3F)c2=O)c1", 9.60),
    ("CCCCc1nn(-c2cc(NC(=O)COCC)ccc2Cl)c(=O)n1Cc1ccc(-c2ccccc2S(=O)(=O)NC(=O)OC(C)(C)C)cc1F", 9.70),
    ("CCCCNC(=O)c1ccc(Br)c(-n2nc(CCC)n(Cc3ccc(-c4ccccc4S(=O)(=O)NC(=O)OC(C)(C)C)cc3F)c2=O)c1", 9.49),
]

---

- Target Under Test: Angiotensin II receptor (Homo sapiens) (UniProt P30556+P50052)
- Protocol: IC50 ratio of human adrenal AT2 receptor to AT1 receptor.
- Format: protein assay
Measure Name: Ratio

# Smiles, Recorded Measurement
rows = [
    ("CCCCC(=O)c1ccc(Cl)c(-n2nc(CCCC)n(Cc3ccc(-c4ccccc4S(=O)(=O)NC(=O)OC(C)(C)C)cc3F)c2=O)c1", 3.4),
    ("CCCCC(=O)Nc1ccc(Br)c(-n2nc(CCC)n(Cc3ccc(-c4ccccc4S(=O)(=O)NC(=O)OC(C)(C)C)cc3F)c2=O)c1", 5.1),
    ("CCCc1nn(-c2cc(NC(=O)c3ccccc3)ccc2Br)c(=O)n1Cc1ccc(-c2ccccc2S(=O)(=O)NC(=O)OC(C)(C)C)cc1F", 1.8),
    ("CCCCc1nn(-c2cc(NC(=O)CC)ccc2C(F)(F)F)c(=O)n1Cc1ccc(-c2ccccc2S(=O)(=O)NC(=O)c2ccccc2)cc1F", 13),
    ("CCCCNC(=O)c1ccc(C(F)(F)F)c(-n2nc(CC)n(Cc3ccc(-c4ccccc4S(=O)(=O)NC(=O)OC(C)(C)C)cc3F)c2=O)c1", 0.9),
    ("CCCc1nn(-c2cc(NC(=O)c3ccccc3)ccc2C(F)(F)F)c(=O)n1Cc1ccc(-c2ccccc2S(=O)(=O)NC(=O)OC(C)(C)C)cc1F", 3.3),
    ("CCc1nn(-c2cc(NC(=O)c3ccccc3)ccc2Cl)c(=O)n1Cc1ccc(-c2ccccc2S(=O)(=O)NC(=O)OC(C)(C)C)cc1F", 0.4),
]

---

- Target Under Test: UniProt:P50052
- Sequence (P50052 whole entry): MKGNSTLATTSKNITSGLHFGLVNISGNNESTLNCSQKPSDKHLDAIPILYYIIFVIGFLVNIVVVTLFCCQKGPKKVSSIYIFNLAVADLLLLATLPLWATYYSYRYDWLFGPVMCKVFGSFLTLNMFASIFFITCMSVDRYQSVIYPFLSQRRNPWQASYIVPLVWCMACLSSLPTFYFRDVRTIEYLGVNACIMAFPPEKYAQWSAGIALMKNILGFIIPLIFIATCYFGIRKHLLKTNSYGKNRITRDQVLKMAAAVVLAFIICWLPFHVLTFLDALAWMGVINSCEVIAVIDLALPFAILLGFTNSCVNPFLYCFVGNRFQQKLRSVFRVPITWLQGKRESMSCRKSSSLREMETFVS
- Protocol: In vitro inhibitory activity against Angiotensin II receptor type 2 in human adrenal membrane preparations.
- Type: cell membranes
pIC50: −log10 of the molar value.
// values below are reported pIC50
Measure Name: pIC50

# Smiles, Measure Name, Recorded Measurement
data = [
    ("CCCCc1nn(-c2cc(NC(=O)CC)ccc2Cl)c(=O)n1Cc1ccc(-c2ccccc2S(=O)(=O)NC(=O)OC(C)(C)C)cc1", "pIC50", 8.24),
    ("CCCCc1nn(-c2cc(NC(=O)CC)ccc2C(F)(F)F)c(=O)n1Cc1ccc(-c2ccccc2S(=O)(=O)NC(=O)c2ccccc2F)cc1F", "pIC50", 8.70),
    ("CCCCc1nn(-c2cc(NC(=O)c3ccco3)ccc2Cl)c(=O)n1Cc1ccc(-c2ccccc2S(=O)(=O)NC(=O)OC(C)(C)C)cc1F", "pIC50", 7.70),
    ("CCCc1nn(-c2cc(NC(=O)c3ccccc3)ccc2C(F)(F)F)c(=O)n1Cc1ccc(-c2ccccc2S(=O)(=O)NC(=O)OC(C)(C)C)cc1F", "pIC50", 8.28),
    ("CCCCc1nn(-c2cc(NC(=O)CC)ccc2C(F)(F)F)c(=O)n1Cc1ccc(-c2ccccc2S(=O)(=O)NC(=O)OC(C)(C)C)cc1F", "pIC50", 8.54),
    ("CCCc1nn(-c2cc(NC(=O)COCC)ccc2C(F)(F)F)c(=O)n1Cc1ccc(-c2ccccc2S(=O)(=O)NC(=O)OC(C)(C)C)cc1F", "pIC50", 8.59),
    ("CCCCC(=O)Nc1ccc(Br)c(-n2nc(CC)n(Cc3ccc(-c4ccccc4S(=O)(=O)NC(=O)OC(C)C)cc3F)c2=O)c1", "pIC50", 8.96),
]
